Here the recorded CC50 at 72 h is given for each entry.
Assay: HEK293T cytotoxicity assay (Cell Titer-Glo)
Format: cell-based
Settings: human, HEK293T cells; HEK293T, 3 days
Record the value in µM, omitting the unit from your answer.

Observe how each entry below is paired with its result.
Answer with reported CC50 at 72 h of O=S(=O)(F)Oc1ccc(OCc2c(F)cc(-n3ccnc3)cc2F)cc1 [Compound 19f] 9.65

Answer with reported CC50 at 72 h of O=S(=O)(F)Oc1ccc(OCc2c(F)cc(-c3ccn[nH]3)cc2F)cc1 [Compound 19c] 31.7

Answer with reported CC50 at 72 h of CC(C)c1ncn(-c2cc(F)c(COc3ccc(OS(=O)(=O)F)cc3)c(F)c2)n1 [Compound 20c] 16.7

Answer with reported CC50 at 72 h of Cc1nc(C)n(-c2cc(F)c(COc3ccc(OS(=O)(=O)F)cc3)c(F)c2)n1 [Compound 20e] 14.3

Further cases:
Answer with reported CC50 at 72 h of O=S(=O)(F)Oc1ccc(OCc2c(F)cc(-c3nnc[nH]3)cc2F)cc1 [Compound 19a] 14.7

Answer with reported CC50 at 72 h of O=S(=O)(F)Oc1ccc(OCc2c(F)cc(-c3cnoc3)cc2F)cc1 [Compound 19j] 23.8

Answer with reported CC50 at 72 h of "O=S(=O)(F)Oc1ccc(OCc2c(F)cc(-n3ccnn3)cc2F)cc1" 27.7

====

Tested on: Mtb H37Rv
Assay: MIC determination in Mtb H37Rv, Microdilution Alamar Blue Assay (MABA)
Format: cell-based, Mycobacterium tuberculosis
Settings: Mycobacterium tuberculosis, H37RV, 168 h, Mtb H37Rv, MABA, 7 days
Property Label: MIC

Answer with reported MIC of O=S(=O)(F)Oc1ccc(OCc2c(F)cc(-c3nnc[nH]3)cc2F)cc1 [Compound 19a] < 1 µM

Answer with reported MIC of O=S(=O)(F)Oc1ccc(OCc2c(F)cc(-c3ncon3)cc2F)cc1 [Compound 19i] < 1 µM

Further cases:
Answer with reported MIC of O=S(=O)(F)Oc1ccc(OCc2c(F)cc(-c3cnoc3)cc2F)cc1 [Compound 19j] < 1 µM
